Every entry's value here was drawn from the array DNA melting data of Ke et al. (doi:10.1101/2024.01.08.574731).

folding enthalpy values, listed per item
experiment: folding enthalpy; higher = less favourable; fluorescence melt of hairpins on a sequencing array, two-state fit; settings: sodium 0.088 M
Quick note: give the figure in kcal/mol, leave out the unit.

Worked examples follow.
GGTACAGCGAAAGCTACC (((..(((....))))))    -16.4
GGCATTGGAAACAATACC ((.((((....)))).))    -25.4
GCGCATGGAAACGTGCGC (((((.(....).)))))    -41

(Q) Suppose we examine the sequence GAGGTAGGAAACTACCTC (((((((....))))))) ; what folding enthalpy value has been reported?
(A) -37.2

(Q) Reported folding enthalpy, sequence GGTCCAGCGAAAGCTACC (((..(((....)))))) : ____
(A) -10.7

(Q) Reported folding enthalpy for GAGAGAGGAAACTCTTTC ((.((((....)))).)) : what is it?
(A) -20.5

(Q) May I ask what folding enthalpy has been recorded for GCCGGCGAAAGCCCTGGC ((((((....)))..))) ?
(A) -16.2

(Q) Any idea what its folding enthalpy is? The sequence is GATCAATACCTTGATC ((((((....))))))
(A) -34

(Q) # lookup: folding enthalpy of GATCAGTATTCTGATC ((((((....))))))
(A) -39.1

(Q) # lookup: folding enthalpy of GCTAACGGAAACGTTGGC ((.((((....)))).))
(A) -36.1
